# System: Klebsiella pneumoniae ATCC 10 031
Rule: MIC below 2 µg/mL gives 1 (yes). Equal to or above 2 µg/mL gives 0 (no).

Field: example entries. Status: answers known.
{"compound": "CC1(C)SC2C(NC(=O)C(NC(=O)Nc3cnc(Nc4ccc([N+](=O)[O-])cc4)nc3O)c3ccccc3)C(=O)N2C1C(=O)O (stereo not drawn) [Verbindung 41]", "testedTarget": "Klebsiella pneumoniae ATCC 10 031", "assignedLabel": "1 (yes)"}
{"compound": "CC1(C)SC2C(NC(=O)C(NC(=O)Nc3cnc(Nc4ccc(S(N)(=O)=O)c(O)c4)nc3O)c3ccc(O)c(Cl)c3)C(=O)N2C1C(=O)O (stereo not drawn) [Verbindung 49]", "testedTarget": "Klebsiella pneumoniae ATCC 10 031", "assignedLabel": "1 (yes)"}
{"compound": "CC1(C)SC2C(NC(=O)C(NC(=O)Nc3cnc(Nc4ccc(C(N)=O)cc4)nc3O)c3ccc(O)c(Cl)c3)C(=O)N2C1C(=O)O (stereo not drawn) [Verbindung 35]", "testedTarget": "Klebsiella pneumoniae ATCC 10 031", "assignedLabel": "0 (no)"}
{"compound": "CC1(C)SC2C(NC(=O)C(NC(=O)Nc3cnc(Nc4ccc(S(N)(=O)=O)c(O)c4)nc3O)c3ccc(O)cc3)C(=O)N2C1C(=O)O (stereo not drawn) [Verbindung 44]", "testedTarget": "Klebsiella pneumoniae ATCC 10 031", "assignedLabel": "1 (yes)"}
{"compound": "CC1(C)S[C@@H]2[C@H](NC(=O)[C@H](NC(=O)Nc3cnc(Nc4ccc(S(N)(=O)=O)cc4)nc3O)c3ccc(O)c(O)c3)C(=O)N2[C@H]1C(=O)O [Verbindung 3]", "testedTarget": "Klebsiella pneumoniae ATCC 10 031", "assignedLabel": "0 (no)"}

Exam item: Quick check: does CC1(C)S[C@@H]2[C@H](NC(=O)[C@H](NC(=O)N3CCN(S(C)(=O)=O)C3=O)c3ccccc3)C(=O)N2[C@H]1C(=O)O [B, Mezlocillin, reference compound] have MIC under 2 µg/mL?
Marked response: 0 (no)

Exam item: Below 2 µg/mL on MIC? Entry CC1(C)SC2C(NC(=O)C(NC(=O)Nc3cnc(Nc4ccc(NC(N)=O)cc4)nc3O)c3ccc(O)cc3)C(=O)N2C1C(=O)O (stereo not drawn) [Verbindung 43]
Marked response: 0 (no)

Exam item: Below 2 µg/mL on MIC? Entry CC1(C)SC2C(NC(=O)C(NC(=O)Nc3cnc(Nc4ccc(S(C)(=O)=O)cc4)nc3O)c3ccccc3)C(=O)N2C1C(=O)O (stereo not drawn) [Verbindung 24]
Marked response: 1 (yes)
